Reported protein stability index by item:
B1: KCNG1 (parent)
chain: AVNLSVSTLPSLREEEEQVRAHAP

# Variants of: B1
# run-description: protein stability index of a GFP-peptide fusion (GPS, HEK-293T) (PSI 1-6); higher = more stable;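 note: lentivirally expressed fusions sorted by FACS into six bins by GFP to DsRed ratio, PSI derived from sequencing read proportions per bin multiplied by bin number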
# measurement-conditions: c terminus: a fixed tail appended
measured-quantity: protein stability index

>>> df
   alteration  result
0         V6M    4.98
1         V2Y    4.93
2        P10Q    5.05
